Molecular target: human TLR7 (Homo sapiens, UniProt Q9NYK1)
Sequence (Q9NYK1 27-1049): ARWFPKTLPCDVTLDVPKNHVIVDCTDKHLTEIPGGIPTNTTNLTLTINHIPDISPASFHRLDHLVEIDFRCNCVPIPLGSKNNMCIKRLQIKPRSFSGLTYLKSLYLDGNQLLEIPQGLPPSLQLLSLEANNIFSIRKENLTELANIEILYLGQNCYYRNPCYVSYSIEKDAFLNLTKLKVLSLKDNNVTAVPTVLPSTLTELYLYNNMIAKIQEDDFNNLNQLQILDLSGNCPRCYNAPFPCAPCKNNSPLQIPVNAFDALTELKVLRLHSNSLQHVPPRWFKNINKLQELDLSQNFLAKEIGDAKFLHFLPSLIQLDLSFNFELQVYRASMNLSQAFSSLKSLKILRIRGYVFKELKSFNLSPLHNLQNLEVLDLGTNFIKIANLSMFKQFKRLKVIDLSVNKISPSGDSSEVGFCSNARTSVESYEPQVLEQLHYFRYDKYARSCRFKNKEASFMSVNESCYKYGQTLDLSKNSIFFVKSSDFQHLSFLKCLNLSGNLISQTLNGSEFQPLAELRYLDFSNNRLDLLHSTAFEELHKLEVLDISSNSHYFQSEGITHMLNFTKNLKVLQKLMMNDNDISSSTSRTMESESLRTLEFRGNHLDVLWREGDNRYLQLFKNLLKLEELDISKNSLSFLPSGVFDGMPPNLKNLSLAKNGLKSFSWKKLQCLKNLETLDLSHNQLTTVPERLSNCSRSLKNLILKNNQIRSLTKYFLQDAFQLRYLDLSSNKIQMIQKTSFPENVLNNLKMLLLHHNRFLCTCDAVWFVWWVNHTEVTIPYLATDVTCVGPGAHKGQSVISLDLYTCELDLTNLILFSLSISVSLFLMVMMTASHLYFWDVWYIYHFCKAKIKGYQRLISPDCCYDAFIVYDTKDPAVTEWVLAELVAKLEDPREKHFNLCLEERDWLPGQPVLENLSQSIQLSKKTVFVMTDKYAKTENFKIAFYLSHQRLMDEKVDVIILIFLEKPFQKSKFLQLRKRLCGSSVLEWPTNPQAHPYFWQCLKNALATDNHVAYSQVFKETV
Test: Human TLR7 agonist activity (hTLR7 reporter) assay in HEK-Blue TLR7 cells, SEAP readout
Conditions: 18 h treatment, average where assay repeated
QUANTITY MEASURED: EC50 (nM)

Record excerpt, results attached:
> print(dat)
                                   compound                                    target  measure.unit  obs.value
1  COc1cc(CN2CC3(C2)CN(C(C)C)C3)ccc1Cn1ncc2nc(N)nc(NCc3cc(C)on3)c21 [Compound 213]  human TLR7 (Homo sapiens, UniProt Q9NYK1)            nM       53.4
2  COc1cc(C(=O)N2C[C@H]3CNC[C@H]3C2)ccc1Cn1ncc2nc(N)nc(NCC3CC4(C3)CC4(F)F)c21 (stereo partly shown) [Compound 159]  human TLR7 (Homo sapiens, UniProt Q9NYK1)            nM        909

a: COc1cc(CN2CC3(C2)CS(=O)(=O)C3)ccc1Cn1ncc2nc(N)nc(NCC3CC4(C3)CC4(F)F)c21 (stereo not shown) [Compound 139]
b: COc1cc(C(=O)NC2CCN(CCO)CC2)ccc1Cn1ncc2nc(N)nc(NCC3CC4(CC4)C3)c21 [Compound 225]
c: COc1cc(CN2CC3(CC(OC)C3)C2)ccc1Cn1ncc2nc(N)nc(NCC3CC4(CC4)C3)c21 (stereo not shown) [Compound 147]
d: COc1cc(C(=O)N2CC3(CN(C)C3)C2)ccc1Cn1ncc2nc(N)nc(NCC3CC4(CCC4)C3)c21 [Compound 200]
e: COc1cc(C(=O)N2CCN(CCO)CC2)ccc1Cn1ncc2nc(N)nc(NCC3CC4(CC4)C3)c21 [Compound 184]
Which order do these items take when sorted by rising EC50? List them. Lab note: record answer as labels in requested order.
c, e, d, a, b
(c: 40.5 nM, e: 67.5 nM, d: 124 nM, a: 382 nM, b: 1220 nM)

---

Target: human TLR7 (Homo sapiens)
Assay: Human TLR7 agonist activity (hTLR7 reporter) assay in HEK-Blue TLR7 cells, SEAP readout
Details: 18 h treatment, average where assay repeated
QUANTITY MEASURED: EC50 (nM)

Record excerpt, results attached:
> print(dat)
                                   compound  obs.value
1  CCCCNc1nc(N)nc2c(C)nn(Cc3ccc(CN4CC5(C4)CN(C(C)=O)C5)cc3OC)c12 [Compound 244]        138
2  COc1cc(CN2CC3(CCO3)C2)ccc1Cn1ncc2nc(N)nc(NCC3CC4(C3)CC4F)c21 (centres unmarked) [Compound 127]        214
3  CCC[C@@H](CCO)Nc1nc(N)nc2cnn(Cc3ccc(CN4CC5(C4)CN(C(=O)C4CCC4)C5)cc3OC)c12 [Compound 106]       11.6
4  CCCCNc1nc(N)nc2cnn(Cc3ccc(CN4CCC5(CC4)CNC5)cc3OC)c12 [Compound 255]        175
5  COc1cc(C(=O)N2C[C@H]3CNC[C@H]3C2)ccc1Cn1ncc2nc(N)nc(NCC3CC4(CCC4)C3)c21 [Compound 182]        394

1: CCC[C@@H](CCO)Nc1nc(N)nc2c(C)nn(Cc3ccc(CNC4CC5(C4)CN(C)C5)cc3OC)c12 [Compound 269]
2: COc1cc(C(=O)N2C[C@H]3CN(C)C[C@H]3C2)ccc1Cn1ncc2nc(N)nc(NCC3CC4(CC4)C3)c21 [Compound 176]
3: COc1cc(C(=O)N2CCN(CC(F)(F)F)CC2)ccc1Cn1ncc2nc(N)nc(NCC3CC4(CC4)C3)c21 [Compound 237]
List from greatest to least EC50. Lab note: record answer as labels in requested order.
3, 1, 2
(3: 589 nM, 1: 69.9 nM, 2: 10.8 nM)

P: CCC[C@@H](CCO)Nc1nc(N)nc2cnn(Cc3ccc(CN4CC5(CN(CC)C5)C4)cc3OC)c12 [Compound 249]
Q: COc1cc(CN2CC3(C2)CN(C(C)=O)C3)ccc1Cn1ncc2nc(N)nc(NCC3CC4(C3)CC4F)c21 (centres unmarked) [Compound 121]
R: COc1cc(CN2CC3(C2)CS(=O)(=O)C3)ccc1Cn1ncc2nc(N)nc(NCC3CC4(CC4)C3)c21 (centres unmarked) [Compound 145]
Which order do these items take when sorted by rising EC50? List them. Lab note: record answer as labels in requested order.
P, R, Q

I: CCC[C@@H](CCO)Nc1nc(N)nc2cnn(Cc3ncc(C4CC5(C4)CN(C(C)C)C5)cc3OC)c12 [Compound 251]
II: COc1cc(C(=O)N2CC3(C2)CN(C(C)C)C3)ccc1Cn1ncc2nc(N)nc(NCc3noc(C)n3)c21 [Compound 248]
III: COc1cc(CN2CCN(CCO)CC2)ccc1Cn1ncc2nc(N)nc(NCC3CC4(C3)CC(F)(F)C4)c21 [Compound 185]
IV: COc1cc(C(=O)NC2CN(C)C2)ccc1Cn1ncc2nc(N)nc(NCC3CC4(CC4)C3)c21 [Compound 190]
V: COc1cc(CN2CC3(C2)CN(C(C)=O)C3)ccc1Cn1ncc2nc(N)nc(NCC3CC34CC4)c21 (centres unmarked) [Compound 109]
List from greatest to least EC50. Lab note: record answer as labels in requested order.
V, III, IV, I, II

---

Biological target: human TLR7 (Homo sapiens)
Test: Human TLR7 agonist activity (hTLR7 reporter) assay in HEK-Blue TLR7 cells, SEAP readout
Conditions: 18 h treatment, average where assay repeated
QUANTITY MEASURED: EC50 (µM)

> print(dat)
                                   compound                     target  obs.value
1  CCCCNc1nc(N)nc2cnn(Cc3ccc(CN4CC5(CCN(CCO)C5)C4)cc3OC)c12  human TLR7 (Homo sapiens)       0.12
2  CCC[C@@H](CCO)Nc1nc(N)nc2cnn(Cc3ccc(CN4CC5(C4)CN(C(=O)C4(C)CC4)C5)cc3OC)c12  human TLR7 (Homo sapiens)     0.0066

1: COc1cc(CNCCO)ccc1Cn1ncc2nc(N)nc(NCC3CC4(CC4)C3)c21
2: COc1cc(C(=O)NC2CCN(C3CC3)CC2)ccc1Cn1ncc2nc(N)nc(NCC3CC4(CC4)C3)c21
Compare 1 and 2 and name the one whose reported EC50 is smaller. Returns: label corresponding to the selected item.
1

---

Target: human TLR7 (Homo sapiens)
Assay: Human TLR7 agonist activity (hTLR7 reporter) assay in HEK-Blue TLR7 cells, SEAP readout
Conditions: 18 h treatment, average where assay repeated
pEC50: −log10 of the molar value.
QUANTITY MEASURED: pEC50

> print(dat)
                                   molecule  quantity.measured  obs.value
1  COc1cc(C(=O)N2CCNCC2)ccc1Cn1ncc2nc(N)nc(NCC3CC4(CC4)C3)c21              pEC50       7.77
2  CCCCNc1nc(N)nc2cnn(Cc3ccc(CN4CC5(COC5)C4)cc3OC)c12              pEC50       7.20
3  COc1cc(CN2CC3(CN(C)C3)C2)ccc1Cn1ncc2nc(N)nc(NCC3CC4(C3)CC4F)c21 (stereo not shown)              pEC50       6.58
4  COc1cc(C(=O)N2CC3(CN(C)C3)C2)ccc1Cn1ncc2nc(N)nc(NCC3CC4(C3)CC4(F)F)c21 (stereo not shown)              pEC50       7.38
5  COc1cc(C(=O)NCCCN(C)C)ccc1Cn1ncc2nc(N)nc(NCC3CC4(CC4)C3)c21              pEC50       6.78
6  COc1cc(CN2CC3(C2)CN(C[C@H](C)O)C3)ccc1Cn1ncc2nc(N)nc(NCC3CC4(CC4)C3)c21              pEC50       7.14
7  COc1cc(CN2CC3(C2)CN(C(C)=O)C3)ccc1Cn1ncc2nc(N)nc(NCC3CC4(CC4)C3)c21              pEC50       7.30
8  COc1cc(CN2C[C@H]3C[C@@H]2CN3C)ccc1Cn1ncc2nc(N)nc(NCC3CC4(C3)CC4F)c21 (stereo partly shown)              pEC50       7.23
9  COc1cc(C(=O)N2CCOCC2)ccc1Cn1ncc2nc(N)nc(NCC3CC4(C3)CC4(F)F)c21 (stereo not shown)              pEC50       6.45

P: COc1cc(C(=O)N(C)C)ccc1Cn1ncc2nc(N)nc(NCC3CC4(C3)CC4(F)F)c21 (stereo not shown)
Q: CCCCNc1nc(N)nc2cnn(Cc3ccc(CN4CCC5(CCN(CCO)C5)C4)cc3OC)c12 (stereo not shown)
R: CCCCNc1nc(N)nc2cnn(Cc3ccc(CN4CCC5(CCNC5)C4)cc3OC)c12 (stereo not shown)
S: CCC[C@@H](CCO)Nc1nc(N)nc2cnn(Cc3ccc(CN4CC5(CCO5)C4)cc3OC)c12
List from greatest to least pEC50. Lab note: record answer as labels in requested order.
S, Q, R, P

Values were extracted from patent US20230122249A1.
